TEST SYSTEM: cAMP-dependent protein kinase (PKA) (Homo sapiens)
Construct: purchased Upstate Biotechnology
PROCEDURE SUMMARY: PKA kinase test (Upstate Biotechnology kit)
Type: biochemical
DETAILS: substance concentration of 100 μM; ATP 50 μM
// reported inhibition at 100 µM for each item listed

SUBSTANCE SMILES: O=C(N[C@@H](Cc1ccc(F)cc1F)C(=O)O)c1ccc2nc(-c3ccncc3)[nH]c2c1
TEST SYSTEM: cAMP-dependent protein kinase (PKA) (Homo sapiens)
inhibition at 100 µM / %: 0

SUBSTANCE SMILES: NC(=O)[C@H](Cc1ccc(C(=O)O)cc1)NC(=O)c1ccc2nc(-c3ccncc3)[nH]c2c1
TEST SYSTEM: cAMP-dependent protein kinase (PKA) (Homo sapiens)
inhibition at 100 µM / %: 0

SUBSTANCE SMILES: O=C(N[C@H](Cc1ccc(Cl)cc1)C(=O)O)c1ccc2nc(-c3ccncc3)[nH]c2c1
TEST SYSTEM: cAMP-dependent protein kinase (PKA) (Homo sapiens)
inhibition at 100 µM / %: 0

SUBSTANCE SMILES: CC(C)(C)c1ccccc1SC[C@H](NC(=O)c1ccc2[nH]c(-c3ccncc3)nc2c1)C(=O)O
TEST SYSTEM: cAMP-dependent protein kinase (PKA) (Homo sapiens)
inhibition at 100 µM / %: 24

SUBSTANCE SMILES: N#Cc1ccc(C[C@H](NC(=O)c2ccc3nc(-c4ccncc4)[nH]c3c2)C(N)=O)cc1
TEST SYSTEM: cAMP-dependent protein kinase (PKA) (Homo sapiens)
inhibition at 100 µM / %: 0

SUBSTANCE SMILES: CSCC[C@H](NC(=O)c1ccc2[nH]c(-c3ccncc3)nc2c1)C(N)=O
TEST SYSTEM: cAMP-dependent protein kinase (PKA) (Homo sapiens)
inhibition at 100 µM / %: 0

SUBSTANCE SMILES: NC(=O)[C@H](Cc1cccs1)NC(=O)c1ccc2nc(-c3ccncc3)[nH]c2c1
TEST SYSTEM: cAMP-dependent protein kinase (PKA) (Homo sapiens)
inhibition at 100 µM / %: 0

SUBSTANCE SMILES: NC(=O)[C@H](Cc1ccc2ccccc2n1)NC(=O)c1ccc2nc(-c3ccncc3)[nH]c2c1
TEST SYSTEM: cAMP-dependent protein kinase (PKA) (Homo sapiens)
inhibition at 100 µM / %: 36

SUBSTANCE SMILES: NC(=O)[C@H](Cc1cccc(C(F)(F)F)c1)NC(=O)c1ccc2nc(-c3ccncc3)[nH]c2c1
TEST SYSTEM: cAMP-dependent protein kinase (PKA) (Homo sapiens)
inhibition at 100 µM / %: 0

SUBSTANCE SMILES: O=C(N[C@@H](Cc1ccc(F)cc1)C(=O)O)c1ccc2nc(-c3ccncc3)[nH]c2c1
TEST SYSTEM: cAMP-dependent protein kinase (PKA) (Homo sapiens)
inhibition at 100 µM / %: 0

SUBSTANCE SMILES: NC(=O)[C@H](Cc1cccnc1)NC(=O)c1ccc2nc(-c3ccncc3)[nH]c2c1
TEST SYSTEM: cAMP-dependent protein kinase (PKA) (Homo sapiens)
inhibition at 100 µM / %: 0

SUBSTANCE SMILES: NC(=O)[C@H](Cc1cc(Br)c(O)c(Br)c1)NC(=O)c1ccc2nc(-c3ccncc3)[nH]c2c1
TEST SYSTEM: cAMP-dependent protein kinase (PKA) (Homo sapiens)
inhibition at 100 µM / %: 26

These entries and their values trace back to patent US6358978B1.
